# study system: TCPTP (Homo sapiens)
# Sequence (P17706 1-415): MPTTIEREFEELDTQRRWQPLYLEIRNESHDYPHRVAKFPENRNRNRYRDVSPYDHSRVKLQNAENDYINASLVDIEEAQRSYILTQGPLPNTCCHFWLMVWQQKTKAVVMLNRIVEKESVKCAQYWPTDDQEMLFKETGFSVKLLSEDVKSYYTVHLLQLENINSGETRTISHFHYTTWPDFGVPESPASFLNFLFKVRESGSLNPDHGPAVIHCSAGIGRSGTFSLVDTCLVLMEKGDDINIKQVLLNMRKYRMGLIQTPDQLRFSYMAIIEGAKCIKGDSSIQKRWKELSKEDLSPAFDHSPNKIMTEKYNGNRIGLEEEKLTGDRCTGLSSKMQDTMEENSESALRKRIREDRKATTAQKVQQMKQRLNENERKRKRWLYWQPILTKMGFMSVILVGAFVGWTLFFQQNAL
# test: T‐cell protein tyrosine phosphatase (TCPTP) activity assay (p‐NPP)
# Type: biochemical
# settings: up to 100 μM
quantity: TCPTP inhibition (in words)

>  <molecule>
CC1(C)[C@@H](O)CC[C@]2(C)[C@H]3C(=O)C=C4[C@@H]5C[C@@](C)(C(=O)O)CC[C@]5(C)CC[C@@]4(C)[C@]3(C)CC[C@@H]12 [18β‐GA, 18β‐glycyrrhetinic acid]

>  <meas value>
do not inhibit TCPTP

$$$$
>  <molecule>
Cc1ccc(-n2ncc3c2C(C)(C)C2CCC4(C)C(C(=O)C=C5C6CC(C)(C(=O)O)CCC6(C)CCC54C)C2(C)C3)cc1 (centres unmarked) [FC‐122]

>  <meas value>
did not inhibit TCPTP

$$$$
>  <molecule>
CC1(C)[C@@H](O)CC[C@]2(C)[C@H]3C(=O)C=C4[C@H]5C[C@@](C)(C(=O)O)CC[C@]5(C)CC[C@@]4(C)[C@]3(C)CC[C@@H]12 [18α‐GA, 18α‐glycyrrhetinic acid]

>  <meas value>
do not inhibit TCPTP

$$$$
>  <molecule>
CC1(C(=O)O)CCC2(C)CCC3(C)C(=CC(=O)C4C5(C)Cc6c([nH]c7ccc(C(F)(F)F)cc67)C(C)(C)C5CCC43C)C2C1 (centres unmarked) [FC‐114]

>  <meas value>
did not inhibit TCPTP

$$$$
